EXPERIMENT NOTES: qHTS assay to identify small molecule agonists of the progesterone receptor (PR) signaling pathway - cell viability counter screen (AID 1346799); also: nearly all actives have a fitted effect of over 45% in size
MEASUREMENT PARAMETERS: PR-UAS-bla HEK293T viability, CellTiter-Glo luminescence, 16 h; series mostly up to 92.4 µM
Results filed as inconclusive are left out. Activity calls are given as the source filed them. Calls follow the shape of the full dose curve.
READOUT: activity change, negative = cytotoxicity

The cases that follow already have their activity change, negative = cytotoxicity on record.
INSERT INTO results (compound, value_observed) VALUES
  ('C[N+](=O)[O-]', 'inactive'),
  ('CN(C)CCc1ccc(O)cc1', 'inactive'),
  ('[O]=[Cd]', 'inactive'),
  ('CC(C)(C)OC(=O)c1ncn2c1[C@@H]1CCCN1C(=O)c1c(Br)cccc1-2', 'inactive'),
  ('CSc1nc(N=[N+]=[N-])nc(NC(C)C)n1', 'inactive'),
  ('OCCSCSCCO', 'inactive');

// sample N#CC(O)c1ccccc1 (stereo not given) , its activity change, negative = cytotoxicity was inactive

// sample CNC(=O)O/N=C(\C)SC , its activity change, negative = cytotoxicity was inactive

// sample CS(=O)(=O)c1cc(C(F)(F)F)ccc1C(=O)c1cnoc1C1CC1 , its activity change, negative = cytotoxicity was inactive

// sample CCC(Cl)[N+](=O)[O-] (stereo not given) , its activity change, negative = cytotoxicity was inactive

// sample CCCCc1ccc(O)cc1 , its activity change, negative = cytotoxicity was inactive

// sample CCS(=O)(=O)C(C)(C)S(=O)(=O)CC , its activity change, negative = cytotoxicity was inactive

// sample O=C(O)c1cccc(Cl)c1 , its activity change, negative = cytotoxicity was inactive

// sample COc1cc(OC)nc(Sc2cccc(Cl)c2C(=O)O)n1 , its activity change, negative = cytotoxicity was inactive

// sample Cc1cc(C)nc(Nc2ccccc2)n1 , its activity change, negative = cytotoxicity was inactive
